meta.source: paper PMC3597663

test_system: Mycobacterium tuberculosis RsdA^1-94 (Mycobacterium tuberculosis, UniProt P9WJ71 1-94)
Sequence (P9WJ71 1-94): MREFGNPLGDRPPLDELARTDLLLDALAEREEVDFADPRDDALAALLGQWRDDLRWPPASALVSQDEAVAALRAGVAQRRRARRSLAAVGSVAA
assay_summary: SPR
quantity_name: Kd (µM)
State the answer as a number, implicitly in µM.

Measured Kd of -35 promoter binding domain of Mycobacterium tuberculosis σ^D (σ^D4), residues 141-212 (domain or fragment) MAIEADSVTRMNELLEILPAKQREILILRVVVGLSAEETAAAVGSTTGAVRVAQHRALQRLKDEIVAAGDYA : 10.3
